Assay: Pharmacokinetics of ZA in pig serum after IV or SC infusion with or without rHuPH20 (LC-MS-MS, non-compartmental analysis)
Assay type: in vivo
Details: female, Yorkshire, pig, serum, sc, […], pig; SC ZA […], no rHuPH20 (Study Group 2); n=4; read-out: CL/F, median (converted)
EXPERIMENTAL ENDPOINT: CL/F (mL/min/kg)
Form entry: value (mL/min/kg) — number only.

Query string: Entry O=P(O)(O)C(O)(Cn1ccnc1)P(=O)(O)O [ZA] : reported CL/F = ?
Result string: 8.48

---

Assay: Phase 1 Stage 1 clinical pharmacokinetics of SC ZA co-administered with rHuPH20
Format: in vivo, human
Settings: human, serum, sc, 0.0196 mg/kg, Subj 27; ZA 0.0196 mg/kg SC; inf […]; PH20 23976 U
EXPERIMENTAL ENDPOINT: Cmax (ng/mL)
Form entry: value (ng/mL) — number only.

Query string: Entry `O=P(O)(O)C(O)(Cn1ccnc1)P(=O)(O)O` : reported Cmax = ?
Result string: 25

---

Experiment: Pharmacokinetics of ZA in pig serum after IV or SC infusion with or without rHuPH20 (LC-MS-MS, non-compartmental analysis)
Format: in vivo
Details: female, Yorkshire, pig, serum, subcutaneous, pig 58, Study Group 3, SC, ZA […], rHuPH20 10000 U/mL, 50 mL over 8 min, time 1 h; read-out: Zoledronic Acid Serum Concentration
EXPERIMENTAL ENDPOINT: concentration at 1 h (ng/mL)
Form entry: value (ng/mL) — number only.

Query string: Entry `O=P(O)(O)C(O)(Cn1ccnc1)P(=O)(O)O` : reported concentration at 1 h = ?
Result string: 107

---

Test: Phase 1 Stage 1 clinical pharmacokinetics of SC ZA co-administered with rHuPH20
Assay type: in vivo, human
Details: human, serum, sc, […], Subj 26; ZA […] SC; inf […]; PH20 23088 U; read-out: Tmax
EXPERIMENTAL ENDPOINT: Tmax (h)
Form entry: value (h) — number only.

Query string: Entry `O=P(O)(O)C(O)(Cn1ccnc1)P(=O)(O)O` : reported Tmax = ?
Result string: 1.03

---

Assay: Pharmacokinetics of ZA in pig serum after IV or SC infusion with or without rHuPH20 (LC-MS-MS, non-compartmental analysis)
Assay type: in vivo
Settings: female, Yorkshire, pig, serum, subcutaneous, […], Time 0.5 h; pig ID 70; Study Group 2; SC; ZA […]; 10 mL, 1.6 min; rHuPH20 0 U/mL; read-out: Zoledronic Acid Serum Concentration
EXPERIMENTAL ENDPOINT: concentration at 0.5 h (ng/mL)
Form entry: value (ng/mL) — number only.

Query string: Entry `O=P(O)(O)C(O)(Cn1ccnc1)P(=O)(O)O` : reported concentration at 0.5 h = ?
Result string: 191

---

Test: Pharmacokinetics of ZA in pig serum after IV or SC infusion with or without rHuPH20 (LC-MS-MS, non-compartmental analysis)
Assay type: in vivo
Details: female, Yorkshire, pig, serum, intravenous, […], animal ID 67, Study Group 1, IV 20 min infusion, ZA […], rHuPH20 0 U/mL, time 0.05 h; read-out: Zoledronic Acid Serum Concentration
EXPERIMENTAL ENDPOINT: concentration at 0.05 h (µg/mL)
Form entry: value (µg/mL) — number only.

Query string: Entry `O=P(O)(O)C(O)(Cn1ccnc1)P(=O)(O)O` : reported concentration at 0.05 h = ?
Result string: 0.288

---

Experiment: Phase 1 Stage 1 clinical pharmacokinetics of SC ZA co-administered with rHuPH20
Format: in vivo, human
Conditions: human, serum, sc, ZA 5 mg SC + 24000 U rHuPH20; median, n=3; read-out: Vz/F
EXPERIMENTAL ENDPOINT: Vd/F (L/kg)
Form entry: value (L/kg) — number only.

Query string: Entry O=P(O)(O)C(O)(Cn1ccnc1)P(=O)(O)O [ZA] : reported Vd/F = ?
Result string: 3.91

---

Test: Pharmacokinetics of ZA in pig serum after IV or SC infusion with or without rHuPH20 (LC-MS-MS, non-compartmental analysis)
Type: in vivo
Conditions: female, Yorkshire, pig, serum, subcutaneous, pig 68, Study Group 3, SC, ZA […], rHuPH20 10000 U/mL, 10 mL over 1.6 min, time 1 h; read-out: Zoledronic Acid Serum Concentration
EXPERIMENTAL ENDPOINT: concentration at 1 h

Query string: Entry `O=P(O)(O)C(O)(Cn1ccnc1)P(=O)(O)O` : reported concentration at 1 h = ?
Result string: 90.6 ng/mL

---

Assay: Phase 1 Stage 1 clinical pharmacokinetics of SC ZA co-administered with rHuPH20
Format: in vivo, human
Details: human, serum, sc, ZA 1 mg SC + 24000 U rHuPH20; individual subjects
EXPERIMENTAL ENDPOINT: CL/F

Query string: Entry `O=P(O)(O)C(O)(Cn1ccnc1)P(=O)(O)O` : reported CL/F = ?
Result string: 2.38 mL/min/kg

---

Experiment: Phase 1 Stage 1 clinical pharmacokinetics of SC ZA co-administered with rHuPH20
Format: in vivo, human
Details: human, serum, sc, 0.0794 mg/kg, Subj 74; ZA 0.0794 mg/kg SC; inf […]; PH20 6000 U; read-out: AUC (0-inf)
EXPERIMENTAL ENDPOINT: AUC(0-inf) (µg·h/mL)
Form entry: value (µg·h/mL) — number only.

Query string: Entry O=P(O)(O)C(O)(Cn1ccnc1)P(=O)(O)O [ZA] : reported AUC(0-inf) = ?
Result string: 0.555

---

Experiment: Phase 1 Stage 1 clinical pharmacokinetics of SC ZA co-administered with rHuPH20
Assay type: in vivo, human
Conditions: human, serum, sc, […], Subj 32; ZA […] SC; inf 0.556 hr; PH20 24000 U; read-out: Tmax
EXPERIMENTAL ENDPOINT: Tmax

Query string: Entry O=P(O)(O)C(O)(Cn1ccnc1)P(=O)(O)O [ZA] : reported Tmax = ?
Result string: 1.56 h

---

Experiment: Phase 1 Stage 1 clinical pharmacokinetics of SC ZA co-administered with rHuPH20
Type: in vivo, human
Details: human, serum, sc, serum; ZA 5 mg SC infusion + 24000 Units rHuPH20; 2 h post infusion; individual subjects; read-out: Zoledronic Acid Concentration
EXPERIMENTAL ENDPOINT: concentration at 2 h (ng/mL)
Form entry: value (ng/mL) — number only.

Query string: Entry O=P(O)(O)C(O)(Cn1ccnc1)P(=O)(O)O [ZA] : reported concentration at 2 h = ?
Result string: 83.5

---

Experiment: Phase 1 Stage 1 clinical pharmacokinetics of SC ZA co-administered with rHuPH20
Format: in vivo, human
Conditions: human, serum, sc, 0.0794 mg/kg, Subj 74; ZA 0.0794 mg/kg SC; inf […]; PH20 6000 U
EXPERIMENTAL ENDPOINT: Cmax (ng/mL)
Form entry: value (ng/mL) — number only.

Query string: Entry `O=P(O)(O)C(O)(Cn1ccnc1)P(=O)(O)O` : reported Cmax = ?
Result string: 120

---

Experiment: Phase 1 Stage 1 clinical pharmacokinetics of SC ZA co-administered with rHuPH20
Assay type: in vivo, human
Conditions: human, serum, sc, AUC (0-12h), ZA 5 mg SC + 24000 U rHuPH20; individual subjects
Protocol: A pharmacokinetic study of zoledronic acid (ZA) co-administered with rHuPH20 in human subjects was conducted. […] Serum concentration of ZA was determined using a qualified LC-MS-MS assay after derivatization with diazomethane (Zhu, L S et al. (2006) Rapid Commun. […] The assay range was from 2.0 to 400 ng/mL with a lower limit of quantitation (LLOQ) at 2.0 ng/mL. […] Summary statistics (mean, standard deviation, and median) were calculated using JMP or Microsoft Excel.
EXPERIMENTAL ENDPOINT: AUC(0-t) (ng·h/mL)
Form entry: value (ng·h/mL) — number only.

Query string: Entry `O=P(O)(O)C(O)(Cn1ccnc1)P(=O)(O)O` : reported AUC(0-t) = ?
Result string: 499

---

Experiment: Pharmacokinetics of ZA in pig serum after IV or SC infusion with or without rHuPH20 (LC-MS-MS, non-compartmental analysis)
Format: in vivo
Details: female, Yorkshire, pig, serum, subcutaneous, […], pig 64, Study Group 3, SC, ZA […], rHuPH20 10000 U/mL, 100 mL over 16 min, time 0.05 h; read-out: Zoledronic Acid Serum Concentration
EXPERIMENTAL ENDPOINT: concentration at 0.05 h (ng/mL)
Form entry: value (ng/mL) — number only.

Query string: Entry O=P(O)(O)C(O)(Cn1ccnc1)P(=O)(O)O [ZA] : reported concentration at 0.05 h = ?
Result string: 57

---

Assay: Phase 1 Stage 1 clinical pharmacokinetics of SC ZA co-administered with rHuPH20
Assay type: in vivo, human
Settings: human, serum, sc, […], Subj 1; ZA […] SC; inf 0.554 hr; PH20 23928 U; read-out: Tmax
EXPERIMENTAL ENDPOINT: Tmax (h)
Form entry: value (h) — number only.

Query string: Entry `O=P(O)(O)C(O)(Cn1ccnc1)P(=O)(O)O` : reported Tmax = ?
Result string: 1.02
